biological target: CDK2 (Homo sapiens); construct: endogenous in cells; host or cells: MDA-MB-231; test: CDK protein degradation activity (Western blotting), CDK2; format: cell-based; conditions: MDA-MB-231 cells, 10 μM, 16 hours, Western blot
Kindly state Enzyme degradation CDK2 (% remaining) @ 10 μM for each of the entries shown.

# return recorded Enzyme degradation CDK2 (% remaining) @ 10 μM for entry N#Cc1cccc(C(=O)N[C@H]2C[C@@H](n3cnc4c(Nc5ccc(N6CCN(CC7CCN(c8ccc9nnn([C@H]%10CCC(=O)NC%10=O)c(=O)c9c8)CC7)CC6)cc5)ncnc43)C2)n1 (racemic)
10/10/10%

# return recorded Enzyme degradation CDK2 (% remaining) @ 10 μM for entry `O=C1CCN(c2coc3cc(C(=O)N4CCC5(CC4)CC(N4CCN(c6ccc(Nc7ncnc8c7ncn8[C@H]7C[C@@H](NC(=O)Cc8ccccc8)C7)cc6)CC4)C5)ccc23)C(=O)N1`
0/0/0%

# return recorded Enzyme degradation CDK2 (% remaining) @ 10 μM for entry `O=C1CC[C@H](N2C(=O)c3cccc(NCC(=O)N4CCC5(CC4)CC(N4CCN(c6ccc(Nc7ncnc8c7ncn8[C@H]7C[C@@H](NC(=O)Cc8ccccc8)C7)cc6)CC4)C5)c3C2=O)C(=O)N1`
20/20/20%

----------
target: CDK2 (Homo sapiens); construct: endogenous in cells; host or cells: MDA-MB-231; assay: CDK protein degradation activity (Western blotting), CDK2; type: cell-based; details: MDA-MB-231 cells, 0.1 μM, 16 hours, Western blot
Under this convention, T denotes Enzyme degradation CDK2 (% remaining) @ 0.1 μM strictly below 60% and F denotes Enzyme degradation CDK2 (% remaining) @ 0.1 μM at or above 60%.

Dear reviewer, please state whether O=C1CC[C@H](n2nnc3ccc(N4CCC(CCCN5CCN(c6ccc(Nc7ncnc8c7ncn8C7CC(NC(=O)Cc8ccccc8)C7)cc6)CC5)CC4)cc3c2=O)C(=O)N1 (stereo partly drawn) has Enzyme degradation CDK2 (% remaining) @ 0.1 μM strictly beneath 60%.
T

Dear reviewer, please state whether `O=C1CC[C@H](N2C(=O)C=C(Nc3cccc(CC(=O)N4CCC(CC(=O)N5CCN(c6ccc(Nc7ncnc8c7ncn8[C@H]7C[C@@H](NC(=O)Cc8ccccc8)C7)cc6)CC5)CC4)c3)C2=O)C(=O)N1` has Enzyme degradation CDK2 (% remaining) @ 0.1 μM strictly beneath 60%.
F

Dear reviewer, please state whether Cc1cccc(C(=O)NC2CC(n3cnc4c(NCc5ccc(N6CCN(C(=O)CNc7cccc8c7C(=O)N([C@H]7CCC(=O)NC7=O)C8=O)CC6)cc5)ncnc43)C2)n1 (stereo partly drawn) has Enzyme degradation CDK2 (% remaining) @ 0.1 μM strictly beneath 60%.
T

Dear reviewer, please state whether `Cc1cccc(C(=O)N[C@H]2C[C@@H](n3cnc4c(NCc5ccc(OCC6CCN(C(=O)CNc7ccc8c(c7)C(=O)N([C@H]7CCC(=O)NC7=O)C8=O)CC6)cc5)ncnc43)C2)n1` has Enzyme degradation CDK2 (% remaining) @ 0.1 μM strictly beneath 60%.
T

Dear reviewer, please state whether O=C1CCC(N2C(=O)c3ccc(NCC(=O)N4CCC(CN5CCC(CNc6ncnc7c6ncn7[C@H]6C[C@@H](NC(=O)c7c(Cl)cccc7Cl)C6)CC5)CC4)cc3C2=O)C(=O)N1 (stereo partly drawn) has Enzyme degradation CDK2 (% remaining) @ 0.1 μM strictly beneath 60%.
T

Dear reviewer, please state whether `O=C1CC[C@H](N2C(=O)c3ccc(N4CCC(C(=O)N5CCN(CCC6CCN(c7ccc(Nc8ncnc9c8ncn9[C@H]8C[C@@H](NC(=O)Cc9ccccc9)C8)cc7)CC6)CC5)CC4)cc3C2=O)C(=O)N1` has Enzyme degradation CDK2 (% remaining) @ 0.1 μM strictly beneath 60%.
F

Dear reviewer, please state whether O=C1CC[C@H](N2C(=O)c3ccc(NCC(=O)N4CCC5(CC(N6CCN(c7ccc(Nc8ncnc9c8ncn9[C@H]8C[C@@H](NC(=O)Cc9ccccc9)C8)cc7)CC6)C5)C4)cc3C2=O)C(=O)N1 (stereo partly drawn) has Enzyme degradation CDK2 (% remaining) @ 0.1 μM strictly beneath 60%.
F

----------
biological target: CDK9 (Homo sapiens, UniProt P50750); construct: endogenous in cells; host or cells: MDA-MB-231; experiment: CDK protein degradation activity (Western blotting), CDK9; type: cell-based; settings: MDA-MB-231 cells, 1 μM, 16 hours, Western blot
Sequence (P50750 whole entry): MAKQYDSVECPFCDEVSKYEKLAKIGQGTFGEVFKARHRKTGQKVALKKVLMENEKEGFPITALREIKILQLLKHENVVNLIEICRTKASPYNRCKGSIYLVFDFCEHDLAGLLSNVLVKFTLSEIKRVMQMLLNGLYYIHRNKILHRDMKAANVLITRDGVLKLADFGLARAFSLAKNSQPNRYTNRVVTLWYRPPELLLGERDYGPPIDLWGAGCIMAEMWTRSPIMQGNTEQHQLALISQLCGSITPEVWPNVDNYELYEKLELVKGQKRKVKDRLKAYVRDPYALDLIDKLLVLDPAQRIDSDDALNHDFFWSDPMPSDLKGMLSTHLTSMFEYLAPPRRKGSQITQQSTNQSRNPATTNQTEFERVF
Kindly state Enzyme degradation CDK9 (% remaining) @ 1 μM for each of the entries shown.

# return recorded Enzyme degradation CDK9 (% remaining) @ 1 μM for entry `Cc1cccc(C(=O)N[C@H]2C[C@@H](n3cnc4c(Nc5ccc(N6CCN(CC7CCN(C(=O)C8CN(c9ccc%10c(c9)C(=O)N([C@H]9CCC(=O)NC9=O)C%10=O)C8)CC7)CC6)cc5)ncnc43)C2)n1`
0/0/0%

# return recorded Enzyme degradation CDK9 (% remaining) @ 1 μM for entry `O=C1CC[C@H](N2C(=O)c3cccc(NCC(=O)N4CCC5(CC4)CC(N4CCN(c6ccc(Nc7ncnc8c7ncn8[C@H]7C[C@@H](NC(=O)Cc8ccccc8)C7)cc6)CC4)C5)c3C2=O)C(=O)N1`
0/0/0%

# return recorded Enzyme degradation CDK9 (% remaining) @ 1 μM for entry `O=C1CC[C@H](N2C(=O)c3ccc(N4CC(C(=O)N5CCC(CN6CCN(c7ccc(Nc8ncnc9c8ncn9[C@H]8C[C@@H](NC(=O)c9c(Cl)cccc9Cl)C8)cc7)CC6)CC5)C4)cc3C2=O)C(=O)N1`
0/0/0%

----------
biological target: CDK2 (Homo sapiens, UniProt P24941); construct: endogenous in cells; host or cells: MDA-MB-231; experiment: CDK protein degradation activity (Western blotting), CDK2; type: cell-based; details: MDA-MB-231 cells, 0.1 μM, 16 hours, Western blot
Kindly state Enzyme degradation CDK2 (% remaining) @ 0.1 μM for each of the entries shown.

# return recorded Enzyme degradation CDK2 (% remaining) @ 0.1 μM for entry O=C1CC[C@H](N2C(=O)c3ccc(N4CC(C(=O)N5CCC(CN6CCN(c7ccc(Nc8ncnc9c8ncn9[C@H]8C[C@@H](NC(=O)c9cccc(C(F)(F)F)n9)C8)cc7)CC6)CC5)C4)cc3C2=O)C(=O)N1 [Compound 469]
40/40/40%

# return recorded Enzyme degradation CDK2 (% remaining) @ 0.1 μM for entry O=C1CC[C@@H](c2ccc(OCC(=O)N3CCC4(CC3)CC(N3CCN(c5ccc(Nc6ncnc7c6ncn7[C@H]6C[C@@H](NC(=O)c7c(Cl)cccc7Cl)C6)cc5)CC3)C4)cc2)C(=O)N1 [Compound 442]
40/40/40%

# return recorded Enzyme degradation CDK2 (% remaining) @ 0.1 μM for entry Cc1cccc(C(=O)N[C@H]2C[C@@H](n3cnc4c(NCc5ccc(OCCCN6CCN(C(=O)COc7cccc8c7C(=O)N([C@H]7CCC(=O)NC7=O)C8=O)CC6)cc5)ncnc43)C2)n1 [Compound 113]
30/30/30%

# return recorded Enzyme degradation CDK2 (% remaining) @ 0.1 μM for entry Cc1cccc(C(=O)N[C@H]2C[C@@H](n3cnc4c(NCc5cccc(N6CCN(CC7CCN(C(=O)COc8cccc9c8C(=O)N(C8CCC(=O)NC8=O)C9=O)CC7)CC6)c5)ncnc43)C2)n1 (some centres unmarked) [Compound 132]
60%

# return recorded Enzyme degradation CDK2 (% remaining) @ 0.1 μM for entry O=C1CC[C@H](N2C(=O)c3cccc(CCCCN4CCC(CN5CCN(c6ccc(Nc7ncnc8c7ncn8[C@H]7C[C@@H](NC(=O)c8cccc(C(F)(F)F)n8)C7)cc6)CC5)CC4)c3C2=O)C(=O)N1 [Compound 427]
20/20/20%
